Items are presented alongside their recorded log10 of IC50.
molecular target: interaction of human SOS1 (SOS1) with human K-RasG12C (Homo sapiens (Human)); assay: Biochemical assay: hK-RasG12C interaction assay with hSOS1 (HTRF); conditions: GST-hK-RasG12C with His-hSOS1, 60 min incubation at 20° C., mean, read-out: K-RasG12C - SOS interaction assay IC50 (mean)
measured endpoint: log10 of IC50 (log10 of the value in nM)

INSERT INTO results (compound, assay_target, measured_endpoint, experimental_value) VALUES
  ('Cc1nc(N[C@H](C)c2cccc(C(F)(F)F)c2C)c2cc(P3(=O)CCN(C(=O)c4cnn(C)c4)CC3)ncc2n1', 'interaction of human SOS1 (SOS1) with human K-RasG12C (Homo sapiens (Human))', 'log10 of IC50', 0.96),
  ('CC(=O)N1CCP(=O)(c2cc3c(N[C@H](C)c4cccc(C(F)(F)F)c4C)nc(C)nc3c(C)n2)CC1', 'interaction of human SOS1 (SOS1) with human K-RasG12C (Homo sapiens (Human))', 'log10 of IC50', 1.91),
  ('CC(=O)N1CCP(=O)(c2cc3c(N[C@H](C)c4cccc(C(F)F)c4F)nc(C)nc3cn2)CC1', 'interaction of human SOS1 (SOS1) with human K-RasG12C (Homo sapiens (Human))', 'log10 of IC50', 0.89),
  ('Cc1nc(N[C@H](C)c2cccc(C(F)(F)C(C)(C)O)c2F)c2cc(P(=O)(C(C)C)C(C)C)ncc2n1', 'interaction of human SOS1 (SOS1) with human K-RasG12C (Homo sapiens (Human))', 'log10 of IC50', 1.77),
  ('CC(=O)N1CCP(=O)(c2cc3c(N[C@H](C)c4cccc(C(F)(F)F)c4C)nc(C(F)F)nc3cn2)CC1', 'interaction of human SOS1 (SOS1) with human K-RasG12C (Homo sapiens (Human))', 'log10 of IC50', 0.82),
  ('Cc1nc(N[C@H](C)c2cccc(C(F)(F)CO)c2F)c2cc(P(C)(C)=O)ncc2n1', 'interaction of human SOS1 (SOS1) with human K-RasG12C (Homo sapiens (Human))', 'log10 of IC50', 1.13),
  ('Cc1nc(N[C@H](C)c2cccc(C(F)F)c2F)c2cc(P3(=O)CCN(C(=O)C4CC(F)(F)C4)CC3)ncc2n1', 'interaction of human SOS1 (SOS1) with human K-RasG12C (Homo sapiens (Human))', 'log10 of IC50', 0.90),
  ('CCP(C)(=O)c1cc2c(N[C@H](C)c3cccc(C(F)F)c3F)nc(C)nc2cn1 (single isomer, unassigned) [Example 118]', 'interaction of human SOS1 (SOS1) with human K-RasG12C (Homo sapiens (Human))', 'log10 of IC50', 1.75),
  ('Cc1nc(N[C@H](C)c2cccc(C(F)(F)F)c2C)c2cc(P3(=O)CCN(C(=O)C4(C(F)F)CC4)CC3)ncc2n1', 'interaction of human SOS1 (SOS1) with human K-RasG12C (Homo sapiens (Human))', 'log10 of IC50', 0.98),
  ('CCP(C)(=O)c1cc2c(N[C@H](C)c3cccc(C(F)F)c3F)nc(C)nc2cn1 (stereo partly shown) [Example 117]', 'interaction of human SOS1 (SOS1) with human K-RasG12C (Homo sapiens (Human))', 'log10 of IC50', 1.76),
  ('CC(=O)N1CCP(=O)(c2cc3c(N[C@H](C)c4cccc(C(F)(F)F)c4C)nc(C)nc3c(O)n2)CC1', 'interaction of human SOS1 (SOS1) with human K-RasG12C (Homo sapiens (Human))', 'log10 of IC50', 3.13),
  ('Cc1nc(N[C@H](C)c2cccc(C(F)(F)C(N)=O)c2F)c2cc(P(C)(C)=O)ncc2n1', 'interaction of human SOS1 (SOS1) with human K-RasG12C (Homo sapiens (Human))', 'log10 of IC50', 1.47),
  ('Cc1nc(N[C@H](C)c2cccc(C(F)(F)F)c2C)c2cc(P3(=O)CCN(C(=O)C4(F)CC4)CC3)ncc2n1', 'interaction of human SOS1 (SOS1) with human K-RasG12C (Homo sapiens (Human))', 'log10 of IC50', 1.08),
  ('CC(=O)N1CCP(=O)(c2cc3c(N[C@H](C)c4cccc(C(F)(F)F)c4)nc(C)nc3cn2)CC1', 'interaction of human SOS1 (SOS1) with human K-RasG12C (Homo sapiens (Human))', 'log10 of IC50', 1.07),
  ('CC(=O)N1CCP(=O)(c2cc3c(N[C@H](C)c4cccc(C(F)(F)C(C)(C)O)c4F)nc(C)nc3cn2)CC1', 'interaction of human SOS1 (SOS1) with human K-RasG12C (Homo sapiens (Human))', 'log10 of IC50', 0.61),
  ('Cc1nc(N[C@H](C)c2cccc(C(F)F)c2F)c2cc(P(C)(C)=O)c(C)nc2n1', 'interaction of human SOS1 (SOS1) with human K-RasG12C (Homo sapiens (Human))', 'log10 of IC50', 1.44),
  ('Cc1nc(N[C@H](C)c2cccc(C(F)F)c2F)c2cc(P3(=O)CCN(C(=O)C(C)C)CC3)ncc2n1', 'interaction of human SOS1 (SOS1) with human K-RasG12C (Homo sapiens (Human))', 'log10 of IC50', 0.87),
  ('Cc1nc(N[C@H](C)c2cccc(C(F)(F)C(=O)C(C)(C)C)c2F)c2cc(P(C)(C)=O)ncc2n1', 'interaction of human SOS1 (SOS1) with human K-RasG12C (Homo sapiens (Human))', 'log10 of IC50', 1.75),
  ('CCNC(=O)C(F)(F)c1cccc([C@@H](C)Nc2nc(C)nc3cnc(P(C)(C)=O)cc23)c1F', 'interaction of human SOS1 (SOS1) with human K-RasG12C (Homo sapiens (Human))', 'log10 of IC50', 1.94),
  ('Cc1nc(N[C@H](C)c2cccc(C(F)(F)F)c2C)c2cc(P3(=O)CCN(c4ccn(C)n4)CC3)ncc2n1', 'interaction of human SOS1 (SOS1) with human K-RasG12C (Homo sapiens (Human))', 'log10 of IC50', 1.26),
  ('COCC(F)(F)c1cccc([C@@H](C)Nc2nc(C)nc3cnc(P4(=O)CCCC4)cc23)c1F', 'interaction of human SOS1 (SOS1) with human K-RasG12C (Homo sapiens (Human))', 'log10 of IC50', 1.57),
  ('Cc1nc(N[C@H](C)c2cccc(C(F)F)c2F)c2cc(P(C)(=O)C(C)C)ncc2n1 (single isomer, unassigned) [Example 115]', 'interaction of human SOS1 (SOS1) with human K-RasG12C (Homo sapiens (Human))', 'log10 of IC50', 1.90),
  ('Cc1nc(N[C@H](C)c2cccc(C(F)F)c2F)c2cc(P3(=O)CCN(C(=O)C(F)F)CC3)ncc2n1', 'interaction of human SOS1 (SOS1) with human K-RasG12C (Homo sapiens (Human))', 'log10 of IC50', 0.58),
  ('Cc1nc(N[C@H](C)c2cccc(C(F)(F)C(C)(C)O)c2F)c2cc(P3(=O)CCN(C(=O)C4CC4)CC3)ncc2n1', 'interaction of human SOS1 (SOS1) with human K-RasG12C (Homo sapiens (Human))', 'log10 of IC50', 0.68),
  ('Cc1nc(N[C@H](C)c2cccc(C(F)(F)F)c2C)c2cc(P3(=O)CCN(C(=O)C4(C#N)CC4)CC3)ncc2n1', 'interaction of human SOS1 (SOS1) with human K-RasG12C (Homo sapiens (Human))', 'log10 of IC50', 1.10),
  ('CCP(C)(=O)c1cc2c(N[C@H](C)c3cccc(C(F)(F)C(C)(C)O)c3F)nc(C)nc2cn1 (stereo partly shown) [Example 67]', 'interaction of human SOS1 (SOS1) with human K-RasG12C (Homo sapiens (Human))', 'log10 of IC50', 1.83),
  ('CC(=O)N1CCP(=O)(c2cc3c(N[C@H](C)c4cccc(C(F)(F)F)c4C)nc(C)nc3c(C(F)F)n2)CC1', 'interaction of human SOS1 (SOS1) with human K-RasG12C (Homo sapiens (Human))', 'log10 of IC50', 1.22),
  ('Cc1nc(N[C@H](C)c2cccc(C(F)(F)F)c2C)c2cc(P3(=O)CCN(C(=O)C4CC4)CC3)ncc2n1', 'interaction of human SOS1 (SOS1) with human K-RasG12C (Homo sapiens (Human))', 'log10 of IC50', 0.59);

* * *

Items are presented alongside their recorded pIC50.
target: interaction of human SOS1 (SOS1) with human K-RasG12C (Homo sapiens (Human), UniProt Q07889); test: Biochemical assay: hK-RasG12C interaction assay with hSOS1 (HTRF); conditions: GST-hK-RasG12C with His-hSOS1, 60 min incubation at 20° C., mean, read-out: K-RasG12C - SOS interaction assay IC50 (mean)
Sequence (Q07889 564-1049 limits assumed): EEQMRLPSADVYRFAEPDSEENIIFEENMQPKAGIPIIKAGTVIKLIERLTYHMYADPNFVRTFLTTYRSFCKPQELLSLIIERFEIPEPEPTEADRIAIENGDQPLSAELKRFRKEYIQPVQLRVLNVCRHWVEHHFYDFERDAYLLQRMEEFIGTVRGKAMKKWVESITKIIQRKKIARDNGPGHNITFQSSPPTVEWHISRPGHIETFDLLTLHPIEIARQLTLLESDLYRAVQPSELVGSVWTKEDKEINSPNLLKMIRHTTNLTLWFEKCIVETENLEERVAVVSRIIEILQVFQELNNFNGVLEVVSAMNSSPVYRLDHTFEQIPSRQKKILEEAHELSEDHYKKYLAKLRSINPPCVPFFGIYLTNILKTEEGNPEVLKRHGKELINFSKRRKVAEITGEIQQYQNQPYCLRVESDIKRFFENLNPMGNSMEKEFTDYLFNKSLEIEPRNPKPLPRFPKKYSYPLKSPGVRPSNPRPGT
pIC50: −log10 of the molar value.
measured endpoint: pIC50

INSERT INTO measurements (molecule, experimental_value) VALUES
  ('Cc1nc(N[C@H](C)c2cccc(C(F)F)c2F)c2cc(P(C)(C)=O)ncc2n1 [Example 2]', 7.29),
  ('Cc1nc(N[C@H](C)c2cccc(C(F)(F)C(C)(C)O)c2F)c2cc(P(=O)(C(C)C)C(C)C)cnc2n1 [Example 15]', 7.33),
  ('Cc1nc(N[C@H](C)c2cccc(C(F)F)c2F)c2cc(P(C)(=O)C(C)C)ncc2n1 (stereo partly shown) [Example 114]', 7.18),
  ('Cc1nc(N[C@H](C)c2cccc(C(F)F)c2F)c2cc(P3(=O)CCN(C(=O)[C@H](C)O)CC3)ncc2n1 [Example 157]', 8.30),
  ('CNC(=O)C(F)(F)c1cccc([C@@H](C)Nc2nc(C)nc3cnc(P4(=O)CCN(C(C)=O)CC4)cc23)c1F [Example 47]', 7.86),
  ('Cc1nc(N[C@H](C)c2cccc(C(F)(F)F)c2C)c2cc(P3(=O)CCN(C(C)C)CC3)ncc2n1 [Example 53]', 7.18),
  ('CC(=O)N1CCP(=O)(c2cc3c(N[C@H](C)c4cccc(C(F)(F)F)c4C)nc(Cl)nc3cn2)CC1 [Example 196]', 8.62);
